Test system: Candida albicans
assayExplanation: Ratio of MIC50 for Candida albicans 5674 to MIC50 for cdr1/cdr1 deficient Candida albicans STY19
Type: functional

{"columns": ["molecule", "Ratio"],
 "data": [
  ["OCCN1CCN(CCCN2c3ccccc3Sc3ccc(C(F)(F)F)cc32)CC1", 1.5],
  ["CC(=O)N1CCN(c2ccc(OCC3COC(Cn4ccnc4)(c4ccc(Cl)cc4Cl)O3)cc2)CC1 (centres undefined)", 4],
  ["OC(Cn1cncn1)(Cn1cncn1)c1ccc(F)cc1F", 6],
  ["CCC(C)n1ncn(-c2ccc(N3CCN(c4ccc(OCC5COC(Cn6cncn6)(c6ccc(Cl)cc6Cl)O5)cc4)CC3)cc2)c1=O (centres undefined)", 8]
]}

====

System: Candida albicans
assayExplanation: Antifungal activity against azole-resistant Candida albicans 5674 after 48 hrs
Assay type: functional
runConditions: Candida albicans, 5674, 48 h
Below: a set of entries, each annotated with reported MIC50.
parameter: MIC50

{"columns": ["compound", "parameter", "result"],
 "data": [
  ["OCCN1CCN(CCCN2c3ccccc3Sc3ccc(C(F)(F)F)cc32)CC1", "MIC50", "75 µg/mL"],
  ["OC(Cn1cncn1)(Cn1cncn1)c1ccc(F)cc1F", "MIC50", "150 µg/mL"],
  ["CCC(C)n1ncn(-c2ccc(N3CCN(c4ccc(OCC5COC(Cn6cncn6)(c6ccc(Cl)cc6Cl)O5)cc4)CC3)cc2)c1=O (stereo unspecified)", "MIC50", "0.2 µg/mL"],
  ["CC(=O)N1CCN(c2ccc(OCC3COC(Cn4ccnc4)(c4ccc(Cl)cc4Cl)O3)cc2)CC1 (stereo unspecified)", "MIC50", "0.6 µg/mL"],
  ["C[C@@H]1[C@H](O)[C@@H](C)/C=C/C=C/C=C/C=C/C=C/C=C/C=C/[C@H](O[C@@H]2O[C@H](C)[C@@H](O)[C@H](N)[C@@H]2O)C[C@@H]2O[C@](O)(C[C@@H](O)C[C@@H](O)[C@H](O)CC[C@@H](O)C[C@@H](O)CC(=O)O[C@H]1C)C[C@H](O)[C@H]2C(=O)O", "MIC50", "2 µg/mL"],
  ["CC/N=c1\\cc2oc3cc(NCC)c(C)cc3c(-c3ccccc3C(=O)OCC)c-2cc1C.Cl [RHODAMINE 6G HYDROCHLORIDE]", "MIC50", "16 µg/mL"]
]}

====

Tested on: Candida albicans
assayExplanation: Antifungal activity against tac1/tac1 deficient Candida albicans SZY31 after 48 hrs
Assay type: functional
runConditions: SZY31, 48 h
parameter: MIC50 (µg/mL)

{"columns": ["compound", "measurementUnit", "number"],
 "data": [
  ["CCC(C)n1ncn(-c2ccc(N3CCN(c4ccc(OCC5COC(Cn6cncn6)(c6ccc(Cl)cc6Cl)O5)cc4)CC3)cc2)c1=O (stereo unspecified)", "µg/mL", 0.0063],
  ["OC(Cn1cncn1)(Cn1cncn1)c1ccc(F)cc1F", "µg/mL", 6.2],
  ["CC(=O)N1CCN(c2ccc(OCC3COC(Cn4ccnc4)(c4ccc(Cl)cc4Cl)O3)cc2)CC1 (stereo unspecified)", "µg/mL", 0.009],
  ["OCCN1CCN(CCCN2c3ccccc3Sc3ccc(C(F)(F)F)cc32)CC1", "µg/mL", 38],
  ["CC/N=c1\\cc2oc3cc(NCC)c(C)cc3c(-c3ccccc3C(=O)OCC)c-2cc1C.Cl [RHODAMINE 6G HYDROCHLORIDE]", "µg/mL", 2],
  ["C[C@@H]1[C@H](O)[C@@H](C)/C=C/C=C/C=C/C=C/C=C/C=C/C=C/[C@H](O[C@@H]2O[C@H](C)[C@@H](O)[C@H](N)[C@@H]2O)C[C@@H]2O[C@](O)(C[C@@H](O)C[C@@H](O)[C@H](O)CC[C@@H](O)C[C@@H](O)CC(=O)O[C@H]1C)C[C@H](O)[C@H]2C(=O)O", "µg/mL", 1]
]}
